Tested on: STEME: Stellaria media
Assay: Post-emergence herbicidal efficacy at 1280 g/ha, STEME
Assay type: in vivo
Conditions: visual rating about 3 weeks after treatment vs untreated controls
readout: Post-emergence efficacy against STEME (%)
Answers are plain numbers, in %.

Example entries begin here.
• Fc1ccc(Cc2ccccc2Cc2ccc(Cl)cn2)cc1 = 90
• Clc1cnc(Cc2c(Cl)cccc2Oc2ncc(Cl)cn2)nc1 = 90
• COc1cccc(C(C#N)c2ncc(Cl)cn2)c1Oc1ccc(F)cc1 (racemic) = 90
• Fc1ccc(Sc2ccccc2Cc2ncc(Cl)cc2F)cc1 = 100
• Fc1cnc(Oc2cccc(Cl)c2Cc2ncc(Cl)cn2)nc1 = 90

Give measured Post-emergence efficacy against STEME for every item shown.
1. Clc1cnc(Cc2ccccc2Sc2ccc(Cl)cc2Cl)nc1
2. Fc1ccc(Cc2ccccc2Cc2ncc(F)cn2)cc1

Response given:
1: 90; 2: 100

###

Test system: ALOMY: Alopecurus myosuroides
Experiment: Post-emergence herbicidal efficacy at 1280 g/ha, ALOMY
Assay type: in vivo
Conditions: rated visually after about 3 weeks vs untreated controls, 100% = plants have died, 0% = like control plants
readout: Post-emergence efficacy at 1280 g/ha against ALOMY in %

Give measured Post-emergence efficacy at 1280 g/ha against ALOMY in % for every item shown.
1. Cc1cccc(Oc2ncc(Cl)cc2F)c1Cc1ncc(Cl)cn1
2. Fc1cnc(Oc2cccc(Br)c2Cc2ncc(Cl)cn2)nc1
3. Fc1ccc(Oc2c(F)cccc2Cc2ncc(Cl)cn2)cc1

Response given:
1. 90%
2. 90%
3. 90%

Give measured Post-emergence efficacy at 1280 g/ha against ALOMY in % for every item shown.
1. Fc1ccc(Oc2c(Cc3ncc(Cl)cn3)cccc2C(F)(F)F)cc1
2. FC(F)c1cc(-c2ccccc2Cc2ncc(Cl)cn2)on1
3. Fc1cc(Cl)cnc1Cc1ccccc1-n1cc(C(F)(F)F)cn1

Response given:
["100%", "90%", "90%"]

###

System: VIOTR: Viola tricolor
Test: Pre-emergence herbicide efficacy at 80 g/ha, VIOTR
Type: in vivo
Settings: scored visually after about 3 weeks
Kindly state Pre-emergence efficacy against VIOTR in % for each of the entries shown.
Numbers only, in %.

Example entries begin here.
- Fc1cnc(Oc2cccc(Br)c2Cc2ncc(Cl)cn2)nc1: 100
- N#Cc1cccc(Oc2ncc(F)cn2)c1Cc1ncc(Cl)cn1: 100

Give measured Pre-emergence efficacy against VIOTR in % for every item shown.
1. Cc1cccc(Oc2ncc(F)cn2)c1Cc1ncc(Cl)cn1
2. Clc1cnc(Cc2c(Cl)cccc2Oc2ncc(Cl)cn2)nc1

Response given:
[100, 100]

Give measured Pre-emergence efficacy against VIOTR in % for every item shown.
1. N#Cc1cccc(Cc2ncc(F)cn2)c1-n1cc(C(F)(F)F)cn1
2. FC(F)c1cc(-c2ccccc2Cc2ncc(Cl)cn2)on1
3. Fc1ccc(Oc2c(Cc3ncc(Cl)cn3)cccc2C(F)(F)F)cc1

Response given:
1: 90; 2: 80; 3: 100

###

Tested on: AMARE: Amaranthus retroflexus
Assay: Pre-emergence herbicide efficacy at 80 g/ha, AMARE
Format: in vivo
Conditions: scored visually after about 3 weeks
Text: Seeds of monocotyledonous and dicotyledonous weed plants and crop plants were placed in plastic or organic planting pots and covered with soil. […] After about 3 weeks, the efficacy of the preparations was scored visually in comparison with untreated controls as percentages. […]
readout: Pre-emergence efficacy against AMARE in % (%)
Answers are plain numbers, in %.

Give measured Pre-emergence efficacy against AMARE in % for every item shown.
1. Fc1cnc(Oc2cccc(F)c2Cc2ncc(Cl)cn2)nc1
2. Cc1cccc(Cc2ncc(Cl)cn2)c1OS(=O)(=O)CCC(F)(F)F
3. N#Cc1cccc(Cc2ncc(F)cn2)c1-n1cc(C(F)(F)F)cn1
4. O=S(=O)(CCCC(F)(F)F)Oc1c(F)cccc1Cc1ncc(Cl)cn1
5. O=S(=O)(CCC(F)(F)F)Oc1c(F)cccc1Cc1ncc(F)cn1
6. Cc1cccc(Cc2ncc(Cl)cn2)c1Oc1ncc(Cl)cn1
7. Fc1cnc(Cc2cccc(F)c2Oc2ncc(Cl)cn2)nc1
8. Fc1cccc(Oc2ncc(Cl)cn2)c1Cc1ncc(Cl)cn1

Response given:
100
80
100
90
80
95
100
90

Challenge: // Pre-emergence efficacy against AMARE in % lookup, key: "FC(F)c1nc(-c2ccccc2Cc2ncc(Cl)cn2)no1"
Response given: 100

###

Test system: SETVI: Setaria viridis
Experiment: Post-emergence herbicidal efficacy at 1280 g/ha, SETVI
Format: in vivo
Details: visual rating about 3 weeks after treatment vs untreated controls
readout: Post-emergence efficacy against SETVI (%)
One number for each entry, in %.

Example entries begin here.
• Fc1ccc(Oc2ccccc2Cc2ncc(Cl)cn2)cc1 = 90
• Fc1cc(Cl)cnc1Cc1ccccc1-n1cc(C(F)(F)F)cn1 = 90
• Cc1cccc(Cc2ncc(Cl)cn2)c1Oc1ccc(F)cc1 = 90

Give measured Post-emergence efficacy against SETVI for every item shown.
1. Fc1cnc(Oc2ccccc2Cc2ccc(Cl)cn2)nc1
2. Fc1cnc(Oc2cccc(Br)c2Cc2ncc(Cl)cn2)nc1
3. N#Cc1cccc(Cc2ncc(F)cn2)c1-n1cc(C(F)(F)F)cn1

Response given:
[90, 100, 90]

###

System: POAAN: Poa annua
Test: Pre-emergence herbicide efficacy at 1280 g/ha, POAAN
Format: in vivo
Conditions: visual scoring after about 3 weeks vs untreated controls
Kindly state Pre-emergence efficacy against POAAN for each of the entries shown.
Give bare numbers, in %.

- Fc1cnc(Oc2cccc(F)c2Cc2ncc(Cl)cn2)nc1: 100

Give measured Pre-emergence efficacy against POAAN for every item shown.
1. Fc1cnc(Oc2cccc(Cl)c2Cc2ncc(Cl)cn2)nc1
2. Clc1cnc(Cc2ccccc2Sc2ccc(Cl)cc2Cl)nc1

Response given:
1: 100; 2: 90

Give measured Pre-emergence efficacy against POAAN for every item shown.
1. Fc1ccc(Oc2c(F)cccc2Cc2ncc(Cl)cn2)cc1
2. Fc1cccc(Oc2ncc(Cl)cn2)c1Cc1ncc(Cl)cn1

Response given:
90
90

Give measured Pre-emergence efficacy against POAAN for every item shown.
1. N#Cc1cccc(Cc2ncc(Cl)cn2)c1Oc1ccc(F)cc1
2. Clc1cnc(Cc2c(Br)cccc2Oc2ncc(Cl)cn2)nc1
3. Fc1ccc(-c2ccccc2Cc2ncc(Cl)cc2F)cc1F

Response given:
1: 100; 2: 100; 3: 90

###

System: POLCO
Test: Pre-emergence herbicide efficacy at 80 g/ha, POLCO
Type: in vivo
Conditions: Polygonum convolvulus, scored visually after about 3 weeks
Kindly state Pre-emergence efficacy against POLCO in % for each of the entries shown.
Give bare numbers, in %.

Example entries begin here.
• Fc1cnc(Cc2cccc(F)c2Oc2ncc(Cl)cn2)nc1 = 80
• Fc1cnc(Cc2ccccc2-c2cc(C(F)F)no2)nc1 = 90
• Cc1cccc(Cc2ncc(Cl)cn2)c1Oc1ncc(F)cn1 = 80

Give measured Pre-emergence efficacy against POLCO in % for every item shown.
1. Fc1ccc(Cc2c(F)cccc2Oc2ncc(Cl)cn2)nc1
2. N#Cc1cccc(Oc2ncc(F)cn2)c1Cc1ncc(Cl)cn1
3. N#Cc1cccc(Cc2ncc(F)cn2)c1-n1cc(C(F)(F)F)cn1
4. Fc1cnc(Cc2cccc(Cl)c2Oc2ncc(F)cn2)nc1
5. Clc1cnc(Cc2c(Cl)cccc2Oc2ncc(Cl)cn2)nc1
6. Fc1cnc(Oc2cccc(Br)c2Cc2ncc(Cl)cn2)nc1
7. Fc1cnc(Oc2c(F)cccc2Cc2ncc(Cl)cn2)nc1
8. Cc1cccc(Cc2ncc(Cl)cn2)c1Oc1ncc(Cl)cn1

Response given:
90
90
80
80
90
80
90
90

Give measured Pre-emergence efficacy against POLCO in % for every item shown.
1. Cc1cccc(Cc2ncc(F)cn2)c1Oc1ncc(F)cn1
2. FC(F)c1cc(-c2c(Cl)cccc2Cc2ncc(Cl)cn2)on1
3. FC(F)c1cc(-c2ccccc2Cc2ncc(Cl)cn2)on1

Response given:
[80, 90, 80]

###

Tested on: STEME: Stellaria media
Assay: Post-emergence herbicidal efficacy at 1280 g/ha, STEME
Assay type: in vivo
Details: visual rating about 3 weeks after treatment vs untreated controls
readout: Post-emergence efficacy against STEME

Example entries begin here.
• Fc1ccc(Sc2ccccc2Cc2ncc(Cl)cn2)cc1 = 100%
• Fc1cc(Cl)cnc1Cc1ccccc1-n1cc(C(F)(F)F)cn1 = 100%
• Cc1cccc(Oc2ncc(F)cn2)c1Cc1ncc(Cl)cn1 = 100%
• Fc1cnc(Cc2ccccc2-n2cc(C(F)(F)F)cn2)nc1 = 100%

Now for another entry.
Challenge: // Post-emergence efficacy against STEME lookup, key: N#Cc1cccc(C(C#N)c2ncc(Cl)cn2)c1-n1cc(C(F)(F)F)cn1 (centres unmarked)
Response given: 90%

###

System: POAAN: Poa annua
Assay: Pre-emergence herbicide efficacy at 1280 g/ha, POAAN
Assay type: in vivo
Settings: visual scoring after about 3 weeks vs untreated controls
readout: Pre-emergence efficacy against POAAN (%)
One number for each entry, in %.

Example entries begin here.
- Fc1cnc(Oc2ccccc2Cc2ccc(Cl)cn2)nc1: 100
- FC(F)(F)CCSc1ccccc1Cc1ncc(Cl)cn1: 90
- Fc1ccc(Oc2ccccc2Cc2ncc(Cl)cn2)cc1: 100

Give measured Pre-emergence efficacy against POAAN for every item shown.
1. Fc1cnc(Cc2ccccc2Oc2ncc(Cl)cc2F)nc1
2. Fc1ccc(Oc2ccccc2Cc2ccc(Cl)cn2)cc1
3. Fc1ccc(Sc2ccccc2Cc2ncc(F)cn2)cc1
4. Fc1ccc(Oc2c(Br)cccc2Cc2ncc(Cl)cn2)cc1
5. Fc1ccc(-c2ccccc2Cc2ncc(Cl)cn2)cc1F
6. Fc1ccc(Cc2ccccc2Cc2ncc(F)cn2)cc1
7. N#CC(c1ncc(Cl)cn1)c1ccccc1-n1cc(C(F)(F)F)cn1 (racemic)

Response given:
100
100
100
90
100
90
90
